- target-or-system: Acas RegA (cAMP phosphodiesterase RegA) (Acanthamoeba castellanii, UniProt L7WMY9)
- Construct: 621 aa protein from full cDNA, N-terminal hexahis-tag, expressed in E. coli
- Sequence (L7WMY9 entry or part of it): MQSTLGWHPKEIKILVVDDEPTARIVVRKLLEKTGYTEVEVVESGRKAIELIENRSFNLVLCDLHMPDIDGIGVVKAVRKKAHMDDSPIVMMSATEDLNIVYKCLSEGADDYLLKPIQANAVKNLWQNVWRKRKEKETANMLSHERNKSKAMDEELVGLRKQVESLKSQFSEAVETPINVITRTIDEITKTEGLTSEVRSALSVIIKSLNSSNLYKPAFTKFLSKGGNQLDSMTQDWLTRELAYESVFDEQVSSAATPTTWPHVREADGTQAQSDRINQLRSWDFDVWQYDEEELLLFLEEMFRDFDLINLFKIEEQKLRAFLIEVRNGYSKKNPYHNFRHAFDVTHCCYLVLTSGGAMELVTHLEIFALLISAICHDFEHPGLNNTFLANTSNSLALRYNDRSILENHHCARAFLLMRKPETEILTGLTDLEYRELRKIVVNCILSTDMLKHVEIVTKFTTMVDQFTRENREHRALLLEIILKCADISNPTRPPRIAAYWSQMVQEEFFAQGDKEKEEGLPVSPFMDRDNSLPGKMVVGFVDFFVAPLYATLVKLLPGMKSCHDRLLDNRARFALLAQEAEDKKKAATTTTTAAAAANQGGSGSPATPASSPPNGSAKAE
- procedure-summary: inhibition of 3H-cAMP hydrolysis by purified RegA
- Format: biochemical
measure: IC50 (µM)

(P) Clc1cccc(Nc2nnc(-c3ccccc3)c3ccccc23)c1
(Q) COc1cc2c(cc1OC)-c1c/c(=N\c3c(C)cc(C)cc3C)n(C)c(=O)n1CC2
(R) OCCN(CCO)c1nc(N2CCCCC2)c2nc(N(CCO)CCO)nc(N3CCCCC3)c2n1
Descending sort on IC50 required. Answer by listing the labels in the order asked for.
P, Q, R
